System: HOP-92 NSCLC
ASSAY_EXPLANATION: NCI tumour cell line growth inhibition, 48 h
Each record here notes measured TGI.
PROPERTY_NAME: TGI

>>> reading("COC(=O)c1ccccc1C1CN=NC12Cc1ccc(C)c(C)c1C2=O (stereo not drawn)")
"> 100 µM"
>>> reading("COc1cc(C2c3cc(O)c(OC)cc3C3OCC2C3CO)ccc1O (stereo not drawn)")
"> 100 µM"
>>> reading("O=C(CCc1ccccc1)ON1C(=S)NC(c2ccccc2)(c2ccccc2)C1=S")
"> 100 µM"

---

System: M14 melanoma
ASSAY_EXPLANATION: NCI tumour cell line growth inhibition, 48 h; in the data active = GI50 below about 0.43 µM; inactive = the rest
Outcomes: active, inactive

>>> answer_label("CC(C)(O)CS(=O)(=O)Nc1ccc2c(c1)CCN(C(=O)COc1cccnc1)C2")
"active"
>>> answer_label("CCC(CO)Nc1nc(NCc2ccccc2O)c2ncn(C(C)C)c2n1 (configuration not stated)")
"inactive"
>>> answer_label("COc1ccc(-n2nnnc2-c2c[nH]c3c(F)cc(F)cc23)cc1")
"inactive"
>>> answer_label("COC1CC2CCC(C)C(O)(O2)C(=O)C(=O)N2CCCCC2C(=O)OC(C(C)CC2CCC(O)C(OC)C2)CC(=O)C(C)C=C(C)C(O)C(OC)C(=O)C(C)CC(C)/C=C/C=C/C=C1C (configuration not stated)")
"inactive"
>>> answer_label("O=c1nc2n(-c3ccc(Cl)cc3)c3ccc([N+](=O)[O-])cc3cc-2c(=O)[nH]1")
"inactive"
>>> answer_label("O=C(CNc1ccc2c(c1)C(=O)c1ccccc1C2=O)Nc1ccc2c(c1)C(=O)c1ccccc1C2=O")
"inactive"
>>> answer_label("COc1cc(-c2nn(-c3cccc(NC(=O)Nc4cc(C(F)(F)F)cc(C(F)(F)F)c4)c3)cc2-c2ccncc2)ccc1Cl")
"inactive"
>>> answer_label("CC(C)[C@H](CO)Nc1nc(Nc2ccc(C(=O)NCCNS(=O)(=O)c3cccc4c(N(C)C)cccc34)c(Cl)c2)c2ncn(C(C)C)c2n1")
"inactive"
>>> answer_label("Cc1ccccc1N=Nc1ccc(NC(=O)c2ccnn2C)c(C)c1")
"inactive"
>>> answer_label("Cc1ccc(-n2c3c(c4c(CN(C)C)c(O)ccc42)CCc2ccccc2C3=O)cc1")
"inactive"
>>> answer_label("O=C(/C=C/c1cccnc1)NCCCCC1CCCN(C(=O)c2ccccc2)C1 (configuration not stated)")
"active"
>>> answer_label("O=C1CCCCCCCC/C=C\\CC(c2ccco2)O1 (configuration not stated)")
"inactive"

---

System: OVCAR-8 ovarian
ASSAY_EXPLANATION: NCI tumour cell line growth inhibition, 48 h
PROPERTY_NAME: TGI

>>> reading("CCN=C(NNc1ccc([N+](=O)[O-])cc1)P(=O)(OC(C)C)OC(C)C")
"> 100 µM"
>>> reading("CC(C)c1cc(CN(C)C)c(O)c(C(C)(C)C)c1")
"99.6 µM"
>>> reading("CNC(=O)c1n[nH]nc1Sc1c([N+](=O)[O-])ncn1C")
"> 100 µM"
>>> reading("CC(=O)[C@@]1(O)CC[C@H]2[C@@H]3C[C@H](C)C4=CC(=O)CC[C@]4(C)[C@H]3[C@@H](O)C[C@@]21C")
"> 100 µM"
>>> reading("C=CC(c1ccccc1)[C@@]1(OC(C)=O)C(=O)C(=O)OC1C1COC(C)(C)O1 (some centres not stated)")
"27.9 µM"
>>> reading("CC(C)(O)CS(=O)(=O)Nc1ccc2c(c1)CCN(C(=O)COc1cccnc1)C2")
"> 100 µM"
>>> reading("Cc1nc2sc3ccccc3n2c(=O)c1N=Nc1ccc(Br)cc1")
"> 100 µM"
